test.method.notes: in vitro;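 note: MTT reduction read as absorbance at 595 nm, blank-corrected and expressed as percent growth relative to the time-zero cell reading, triplicate wells per concentration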
condition.label: human
Bridge positions count the residues as written; N and C are the ends. Square brackets hold non-standard residues; d marks the D form. Peptide text beside a SMILES is read from it. 2Nal = N[C@@H](Cc1ccc2ccccc2c1)C(=O)O; Cit = NC(=O)NCCC[C@H](N)C(=O)O; Orn = NCCC[C@H](N)C(=O)O; Dab = NCC[C@H](N)C(=O)O
GI50 at 48 h values, listed per item

compound	GI50 at 48 h
N=C(N)NCCC[C@@H]1NC(=O)[C@@H]2CSSC[C@H](NC(=O)[C@H](Cc3c[nH]c4ccccc34)NC(=O)[C@H](CCCN)NC(=O)[C@H](CCCNC(=N)N)NC(=O)[C@H]3CCCN3C(=O)CNC1=O)C(=O)N[C@@H](Cc1ccc(O)cc1)C(=O)N[C@@H](CCCNC(N)=O)C(=O)N[C@@H](CCCCN)C(=O)N1CCC[C@@H]1C(=O)N1CCC[C@H]1C(=O)N[C@@H](Cc1ccc(O)cc1)C(=O)N[C@@H](CCCNC(=N)N)C(=O)N[C@@H](CCCNC(N)=O)C(=O)N2 [Ex. 117] (cyclo(YR[Cit]CRG[dP]R[Orn]WCY[Cit]K[dP]P); disulfide 4-11)	44 µM
N=C(N)NCCC[C@@H]1NC(=O)[C@H](CCCNC(=N)N)NC(=O)[C@H]2CCCN2C(=O)CNC(=O)[C@H](CCN)NC(=O)[C@@H]2CSSC[C@H](NC(=O)[C@H](Cc3c[nH]c4ccccc34)NC1=O)C(=O)N[C@@H](Cc1ccc(O)cc1)C(=O)N[C@@H](CCC(N)=O)C(=O)N[C@@H](CCCCN)C(=O)N1CCC[C@@H]1C(=O)N1CCC[C@H]1C(=O)N[C@@H](Cc1ccc(O)cc1)C(=O)N[C@@H](CCCNC(=N)N)C(=O)N[C@@H](CCCNC(N)=O)C(=O)N2 [Ex. 111] (cyclo(YR[Cit]C[Dab]G[dP]RRWCYQK[dP]P); disulfide 4-11)	> 100 µM
CN1CC(=O)N[C@@H](CCCCN)C(=O)N2CCC[C@@H]2C(=O)N2CCC[C@H]2C(=O)N[C@@H](Cc2ccc(O)cc2)C(=O)N[C@@H](CCCNC(=N)N)C(=O)N[C@@H](CCCNC(N)=O)C(=O)N[C@H]2CSSC[C@H](NC(=O)[C@H](Cc3ccc4ccccc4c3)NC(=O)[C@H](CCCNC(=N)N)NC(=O)[C@H](CCCNC(=N)N)NC(=O)[C@H]3CCCN3C(=O)CNC(=O)[C@H](CCCNC(=N)N)NC2=O)C(=O)N[C@@H](Cc2ccc(O)cc2)C1=O [Ex. 129]	23 µM
N=C(N)NCCC[C@@H]1NC(=O)[C@@H]2CSSC[C@H](NC(=O)[C@H](Cc3ccc4ccccc4c3)NC(=O)[C@H](CCCNC(=N)N)NC(=O)[C@H](CCCNC(=N)N)NC(=O)[C@H]3CCCN3C(=O)CNC1=O)C(=O)N[C@@H](Cc1ccc(O)cc1)C(=O)N[C@@H](CCC(N)=O)C(=O)N[C@@H](CCCCN)C(=O)N1CCC[C@@H]1C(=O)N1CCC[C@H]1C(=O)N[C@@H](Cc1ccc(O)cc1)C(=O)N[C@@H](CCCNC(=N)N)C(=O)N[C@@H](Cc1c[nH]cn1)C(=O)N2 [Ex. 70] (cyclo(YRHCRG[dP]RR[2Nal]CYQK[dP]P); disulfide 4-11)	40 µM
N=C(N)NCCC[C@@H]1NC(=O)[C@@H]2CSSC[C@H](NC(=O)[C@H](Cc3ccc4ccccc4c3)NC(=O)[C@H](CCCNC(=N)N)NC(=O)[C@H](CCCNC(=N)N)NC(=O)[C@H]3CCCN3C(=O)CNC1=O)C(=O)N[C@@H](Cc1ccc(O)cc1)C(=O)N[C@@H](CCC(N)=O)C(=O)N[C@@H](CCCCN)C(=O)N1CCC[C@@H]1C(=O)N1CCC[C@H]1C(=O)N[C@@H](Cc1ccc(O)cc1)C(=O)N[C@@H](CCCNC(=N)N)C(=O)N[C@@H](CCCNC(N)=O)C(=O)N2 [Ex. 132] (cyclo(RR[2Nal]CYQK[dP]PYR[Cit]CRG[dP]); disulfide 4-13)	76 µM
N=C(N)NCCC[C@@H]1NC(=O)[C@@H]2CSSC[C@H](NC(=O)[C@H](Cc3ccc4ccccc4c3)NC(=O)[C@H](CCCNC(=N)N)NC(=O)[C@H](Cc3ccc(O)cc3)NC(=O)[C@H]3CCCN3C(=O)CNC1=O)C(=O)N[C@@H](Cc1ccc(O)cc1)C(=O)N[C@@H](CCC(N)=O)C(=O)N[C@@H](CCCCN)C(=O)N1CCC[C@@H]1C(=O)N1CCC[C@H]1C(=O)N[C@@H](Cc1ccc(O)cc1)C(=O)N[C@@H](CCCNC(=N)N)C(=O)N[C@@H](CCCNC(N)=O)C(=O)N2 [Ex. 54] (cyclo(YR[Cit]CRG[dP]YR[2Nal]CYQK[dP]P); disulfide 4-11)	54 µM
N=C(N)NCCC[C@@H]1NC(=O)[C@@H]2CSSC[C@H](NC(=O)[C@H](Cc3ccc4ccccc4c3)NC(=O)[C@H](CCCNC(=N)N)NC(=O)[C@H](CCCNC(=N)N)NC(=O)[C@H]3CCCN3C(=O)CNC1=O)C(=O)N[C@@H](Cc1ccc(O)cc1)C(=O)N[C@@H](CCC(N)=O)C(=O)N[C@@H](CCCCN)C(=O)N1CCC[C@@H]1C(=O)N1CCC[C@H]1C(=O)N[C@@H](Cc1ccc(O)cc1)C(=O)N[C@@H](CCCNC(=N)N)C(=O)N[C@@H](CCCNC(=N)N)C(=O)N2 [Ex. 69] (cyclo(YRRCRG[dP]RR[2Nal]CYQK[dP]P); disulfide 4-11)	49 µM
CC[C@H](C)[C@@H]1NC(=O)[C@H](CCCNC(=N)N)NC(=O)[C@H](Cc2ccc(O)cc2)NC(=O)[C@@H]2CCCN2C(=O)[C@H]2CCCN2C(=O)[C@H](CCCCN)NC(=O)[C@H](CCC(N)=O)NC(=O)[C@H](Cc2ccc(O)cc2)NC(=O)[C@@H]2CSSC[C@H](NC1=O)C(=O)N[C@@H](CCCNC(=N)N)C(=O)NCC(=O)N1CCC[C@@H]1C(=O)N[C@@H](CCCNC(=N)N)C(=O)N[C@@H](CCCNC(=N)N)C(=O)N[C@@H](Cc1ccc3ccccc3c1)C(=O)N2 [Ex. 71] (cyclo(YRICRG[dP]RR[2Nal]CYQK[dP]P); disulfide 4-11)	34 µM
